# measuredOn: CRBN-DDB1 (Homo sapiens (Human))
# Sequence (Q96SW2 whole entry): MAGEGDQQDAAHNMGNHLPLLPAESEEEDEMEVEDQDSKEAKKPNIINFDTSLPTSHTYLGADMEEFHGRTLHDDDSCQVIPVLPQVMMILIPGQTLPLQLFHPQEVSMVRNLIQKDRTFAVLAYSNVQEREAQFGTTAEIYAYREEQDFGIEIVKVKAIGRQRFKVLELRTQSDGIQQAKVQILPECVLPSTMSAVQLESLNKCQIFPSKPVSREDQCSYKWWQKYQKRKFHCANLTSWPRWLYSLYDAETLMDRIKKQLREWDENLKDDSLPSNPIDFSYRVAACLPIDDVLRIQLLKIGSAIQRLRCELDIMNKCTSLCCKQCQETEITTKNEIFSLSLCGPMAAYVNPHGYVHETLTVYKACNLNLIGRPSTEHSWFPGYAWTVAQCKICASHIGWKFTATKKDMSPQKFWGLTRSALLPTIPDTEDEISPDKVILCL
# Sequence (Q16531 whole entry partner): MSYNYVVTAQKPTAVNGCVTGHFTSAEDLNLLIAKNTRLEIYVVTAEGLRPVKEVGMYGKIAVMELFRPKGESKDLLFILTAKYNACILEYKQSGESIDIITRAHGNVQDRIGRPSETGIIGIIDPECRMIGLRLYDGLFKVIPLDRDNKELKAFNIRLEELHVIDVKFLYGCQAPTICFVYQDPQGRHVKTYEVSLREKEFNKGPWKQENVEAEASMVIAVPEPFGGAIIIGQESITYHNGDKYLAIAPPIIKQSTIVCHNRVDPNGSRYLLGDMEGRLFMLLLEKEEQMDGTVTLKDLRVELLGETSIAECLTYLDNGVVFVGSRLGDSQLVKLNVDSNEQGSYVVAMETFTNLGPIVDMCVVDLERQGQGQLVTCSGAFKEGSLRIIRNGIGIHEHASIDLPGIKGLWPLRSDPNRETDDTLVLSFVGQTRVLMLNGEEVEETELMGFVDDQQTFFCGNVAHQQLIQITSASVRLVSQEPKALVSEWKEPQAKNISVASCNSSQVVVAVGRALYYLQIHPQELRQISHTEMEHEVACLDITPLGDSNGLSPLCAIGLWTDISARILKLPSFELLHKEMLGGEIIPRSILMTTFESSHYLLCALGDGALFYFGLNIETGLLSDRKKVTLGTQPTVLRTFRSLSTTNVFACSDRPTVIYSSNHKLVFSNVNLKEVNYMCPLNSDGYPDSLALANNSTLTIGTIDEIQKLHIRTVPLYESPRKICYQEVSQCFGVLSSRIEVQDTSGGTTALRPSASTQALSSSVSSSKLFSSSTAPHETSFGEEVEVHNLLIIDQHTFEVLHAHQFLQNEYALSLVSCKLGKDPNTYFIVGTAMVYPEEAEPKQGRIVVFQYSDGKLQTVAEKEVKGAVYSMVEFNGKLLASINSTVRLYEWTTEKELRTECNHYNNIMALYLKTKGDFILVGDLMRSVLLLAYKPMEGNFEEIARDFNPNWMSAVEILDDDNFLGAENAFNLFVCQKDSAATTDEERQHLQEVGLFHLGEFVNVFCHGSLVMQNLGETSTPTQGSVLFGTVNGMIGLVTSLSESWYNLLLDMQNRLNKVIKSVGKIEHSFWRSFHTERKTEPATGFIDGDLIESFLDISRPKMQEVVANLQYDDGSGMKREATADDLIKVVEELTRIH
# assayName: Fluorescence polarization (FP) assay for compound ligand binding to CRBN-DDB1
# measurementContext: FP displacement of (−)-Thalidomide-Alexa Fluor or Pomalidomide-fluorescein probe; 400 nM CRBN-DDB1, 5 nM probe; Compounds of the Present Invention
observedProperty: Kd

# input What measured Kd goes with O=C1CCC(Nc2ccc(F)cc2Cl)C(=O)N1 (centres unmarked) ?
# output < 10 µM

# input Need Kd of O=C1CCC(Nc2c(F)cccc2Cl)C(=O)N1 (centres unmarked) , thanks.
# output < 10 µM

# input Quick one: Kd of O=C1CCC(Nc2cccc(-c3cnco3)c2)C(=O)N1 (centres unmarked) ?
# output < 10 µM

# input So what's the measured Kd for this one? CN(CC(=O)O)C1CCC(=O)NC1=O (centres unmarked)
# output > 100 µM

# input Need Kd, item CC(C)(C)OC(=O)N1CCN(c2cccc(NC3CCC(=O)NC3=O)c2)CC1 (centres unmarked)
# output < 10 µM

# input Look at this molecule and give its reported Kd. COc1ccc(NC2CCC(=O)NC2=O)cc1 (centres unmarked)
# output < 10 µM

# input Can you share its Kd? I mean this molecule: O=C1CCC(Nc2ccc(N3CCOCC3)cc2)C(=O)N1 (centres unmarked)
# output < 10 µM

# input I have this molecule here, CN(c1ccc(Br)cc1)C1CCC(=O)NC1=O (centres unmarked) , and I need its recorded Kd.
# output < 10 µM

# input Would you kindly share the measured Kd for Cn1ccc2cc(NC3CCC(=O)NC3=O)ccc21 (centres unmarked) ?
# output < 10 µM

# input Any idea what its Kd is? The molecule is CN1CCN(c2ccc(NC3CCC(=O)NC3=O)cc2)CC1 (centres unmarked)
# output < 10 µM

# input Which Kd is listed for Cc1ccccc1N(C)C1CCC(=O)NC1=O (centres unmarked) ?
# output < 10 µM

# input Looking for the measured Kd of `O=C1C=C(Nc2ccccc2)C(=O)N1` , can you help?
# output > 100 µM

# input Requested field: Kd. Item: CN(c1ccc(Cl)c(Cl)c1)C1CCC(=O)NC1=O (centres unmarked)
# output < 10 µM

# input For CN(C1CNC1)C1CCC(=O)NC1=O (centres unmarked) , what is its reported Kd?
# output > 100 µM

# input May I ask what Kd has been recorded for O=C1CCC(Nc2ccccc2-c2ccccc2)C(=O)N1 (centres unmarked) ?
# output < 10 µM

# input molecule: COc1cc(Cl)ccc1NC1CCC(=O)NC1=O (centres unmarked) ; wanted: its Kd
# output < 10 µM

# input Return reported Kd; argument: O=C1CCC(Nc2ccccc2Cl)C(=O)N1 (centres unmarked)
# output < 10 µM

# input Kd for O=C1CCC(Nc2ccc(C3CCNCC3)cc2)C(=O)N1 (centres unmarked) ?
# output < 10 µM

# input Quick check: Kd of O=C1CCC(NC2CC(=O)N(c3ccccc3)C2)C(=O)N1 (centres unmarked) ?
# output > 100 µM

# input Need Kd, item COc1cc(Cl)c(C)cc1NC1CCC(=O)NC1=O (centres unmarked)
# output < 10 µM

# input Reported Kd, molecule O=C1CCC(N2CCc3cccnc32)C(=O)N1 (centres unmarked) : ____
# output > 100 µM

# input I have this molecule here, COC(=O)c1cccnc1NC1CCC(=O)NC1=O (centres unmarked) , and I need its recorded Kd.
# output > 100 µM

# input For O=C1CCC(Nc2cccc(N3CCOCC3)c2)C(=O)N1 (centres unmarked) , what is its reported Kd?
# output < 10 µM
